# Assay Target: T1, Caspase-3 (UniProt P42574)
# T1 sequence (looked up): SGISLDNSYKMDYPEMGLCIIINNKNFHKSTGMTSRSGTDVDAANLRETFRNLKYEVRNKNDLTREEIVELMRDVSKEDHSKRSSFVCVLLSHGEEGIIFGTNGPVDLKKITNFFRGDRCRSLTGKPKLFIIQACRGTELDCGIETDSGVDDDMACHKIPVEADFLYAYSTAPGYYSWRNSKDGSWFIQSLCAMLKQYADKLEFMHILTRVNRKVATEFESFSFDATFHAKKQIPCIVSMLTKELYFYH
# Experiment: cell-based or functional assay
Numbered stars: 1 amine (or outer) side, 2 acyl side, 3 side chain; on linkers, the order of the positions; unused ones are H or OH. Square brackets hold non-standard residues; d marks the D form. * marks the point of attachment. AAsp = aza-Asp, O=C(N(CC(=O)[*:3])N[*:1])[*:2]; CH═CH‑COOCH2Ph = O=C(/C=C/*)OCc1ccccc1; Cbz = O=C(OCc1ccccc1)*
Quantity Name: k2 (M⁻¹ s⁻¹)

>>> observed_measurement("Cbz-IET[AAsp]-{CH═CH‑COOCH2Ph} (SMILES CC[C@H](C)[C@H](NC(=O)OCc1ccccc1)C(=O)N[C@@H](CCC(=O)O)C(=O)N[C@H](C(=O)NN(CC(=O)O)C(=O)/C=C/C(=O)OCc1ccccc1)[C@@H](C)O) [Cbz-Ile-Glu-Thr-AAsp-CH═CH-COOCH2Ph]")
2300
>>> observed_measurement("Cbz-IET[AAsp]-{CH═CH‑CONHCH2Ph} [Cbz-Ile-Glu-Thr-AAsp-CH═CH-CONHCH2Ph]")
2250
